target: BIR3-mediated Caspase-9 inhibition (UniProt Q9R0I6); construct: Nothing is printed for this assay; experiment: Caspase-9 rescue assay (relief of BIR3-mediated Caspase-9 inhibition); conditions: average EC50, substrate Ac-LEHD-amc, pH 6.5
pEC50: −log10 of the molar value.
pEC50 overview

{"columns": ["molecule", "pEC50"],
 "data": [
  ["CNC(C)C(=O)NC(C(=O)N1CSCC1C(=O)NN(Cc1ccccc1)Cc1ccccc1)C(C)C (centres unmarked)", "> 6.00"],
  ["CCCCC(NC(=O)C(NC(=O)C(C)NC)C(C)C)C(=O)NC1CCCc2ccccc21 (centres unmarked)", "5.00 to 6.00"],
  ["CNC(C)C(=O)NC(C(=O)N1CCCC1C(=O)NCCC(c1ccccc1)c1ccccc1)C(C)(C)C (centres unmarked)", "< 5.00"],
  ["CNC(C)C(=O)NC(C(=O)NC(CC(=O)OCc1ccccc1)C(=O)NC1CCCc2ccccc21)C(C)C (centres unmarked)", "5.00 to 6.00"],
  ["CNC(C)C(=O)NC(C(=O)N(C)C(CCCCNC(=O)OCc1ccccc1)C(=O)NC1CCCc2ccccc21)C(C)C (centres unmarked)", "5.00 to 6.00"],
  ["CNC(C)C(=O)NC(C(=O)NC(CCCCNS(=O)(=O)C(F)(F)F)C(=O)NC1CCCc2ccccc21)C(C)C (centres unmarked)", "< 5.00"],
  ["CNC(C)C(=O)NC(CCCCNC(=O)OCC1c2ccccc2-c2ccccc21)C(=O)N1CSCC1C(=O)NC1CCCc2ccccc21 (centres unmarked)", "> 6.00"]
]}

Turning now to a further molecule:
pEC50 reading for CN[C@@H](C)C(=O)N[C@H]1CCCN2CC[C@@H](C(=O)N[C@@H]3CCCc4ccccc43)N2C1=O : 5.00 to 6.00
